Data provenance: patent US20070105820A1

Listing: melting point of selected compounds

{"Compound": "CCCCCN1C(=O)C(O)(c2ccc3ocnc3c2)c2ccccc21 (stereo not shown)", "melting point": "189 to 191 °C"}
{"Compound": "O=C1N(Cc2cccc(C(F)(F)F)c2)c2ccccc2C1(O)c1ccc2c(c1)OCO2 (stereo not shown)", "melting point": "133 to 135 °C"}
{"Compound": "O=C1c2ccccc2CC1C1(O)C(=O)N(Cc2ccc(Cl)cc2)c2ccccc21 (stereo not shown)", "melting point": "154 to 157 °C"}
{"Compound": "CCCCCN1C(=O)C(N)(CC(=O)c2cccs2)c2ccccc21 (stereo not shown)", "melting point": "167 to 169 °C"}
{"Compound": "Cc1ccc2c(c1)C(O)(CC(=O)c1ccco1)C(=O)N2Cc1ccc(Cl)cc1 (stereo not shown)", "melting point": "183 to 185 °C"}
{"Compound": "O=C(CC1(O)C(=O)N(c2ccc(F)cc2)c2ccccc21)c1ccco1 (stereo not shown)", "melting point": "185 °C (dec.)"}

Q: # query: melting point of entry CCCCCC1(O)C(=O)N(c2ccc3c(c2)OCO3)c2ccccc21 (stereo not shown)
A: 88 to 90 °C
